# tested.target: CCR2 receptor (Homo sapiens, UniProt P41597)
# Construct: host or cells: THP-1 (human monocytic cell line)
# experimental.protocol: Inhibition of MCP-1 induced Ca-flux in human THP-1 cells
# Format: cell-based
# condition.parameters: inhibition of specific MCP-1 induced Ca2+ flux, 10^-7 M hMCP-1, 20 minutes pre-incubation, FLIPR, Fluo-3 AM
recorded.endpoint: IC50 (nM)

Observe how each entry below is paired with its result.
{"columns": ["compound", "units.text", "IC50"],
 "data": [
  ["CCC(c1ccc(Cl)c(Cl)c1)n1c(C(=O)OC)c(NC(=O)c2ccco2)[nH]c1=S (centres unmarked)", "nM", 25.1],
  ["CCC(c1ccc(Cl)c(Cl)c1)n1c(C(=O)OC)c(NC(=O)NCC(OC)OC)[nH]c1=S (centres unmarked)", "nM", 251],
  ["CCC(c1ccc(Cl)c(Cl)c1)n1c(C(=O)OC)c(NC(=O)N2CCN(C)CC2)[nH]c1=S (centres unmarked)", "nM", 316],
  ["CCC(c1ccc(Cl)c(Cl)c1)n1c(C(=O)OC)c(NC(=O)c2cc(C)on2)[nH]c1=S (centres unmarked)", "nM", 158],
  ["CCC(c1ccc(Cl)c(Cl)c1)n1c(C(=O)OC)c(NC(=O)N2CCCC2)[nH]c1=S (centres unmarked)", "nM", 126],
  ["CCC(c1ccc(Cl)c(Cl)c1)n1c(C(=O)OC)c(NC(C)=O)[nH]c1=S (centres unmarked)", "nM", 50.1]
]}

[I] CCC(c1ccc(Cl)c(Cl)c1)n1c(C(=O)OC)c(NC(=O)N2CCN(Cc3ccccc3)CC2)[nH]c1=S (centres unmarked)
[II] CCC(c1ccc(Cl)c(Cl)c1)n1c(C(=O)OC)c(NC(=O)c2ccncc2)[nH]c1=S (centres unmarked)
Rank I against II by their IC50 values and give the higher one. Kindly state the label of the option you pick.
I

* * *

# tested.target: CCR2 receptor (Homo sapiens, UniProt P41597)
# Sequence (P41597 1-360 isoform P41597-2): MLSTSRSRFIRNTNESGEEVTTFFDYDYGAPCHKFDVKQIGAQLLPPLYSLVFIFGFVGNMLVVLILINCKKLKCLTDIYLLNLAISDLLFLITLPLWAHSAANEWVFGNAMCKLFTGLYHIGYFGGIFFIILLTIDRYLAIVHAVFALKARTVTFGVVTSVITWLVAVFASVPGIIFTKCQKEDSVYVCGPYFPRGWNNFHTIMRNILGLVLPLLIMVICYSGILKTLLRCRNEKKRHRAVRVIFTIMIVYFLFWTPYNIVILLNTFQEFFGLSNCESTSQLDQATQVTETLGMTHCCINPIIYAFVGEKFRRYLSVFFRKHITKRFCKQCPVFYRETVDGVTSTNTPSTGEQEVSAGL
# experimental.protocol: Inhibition of MCP-1 induced Ca-flux in human THP-1 cells
# condition.parameters: inhibition of specific MCP-1 induced Ca2+ flux, 10^-7 M hMCP-1, 20 minutes pre-incubation, FLIPR, Fluo-3 AM
pIC50: −log10 of the molar value.
recorded.endpoint: pIC50

Observe how each entry below is paired with its result.
{"columns": ["compound", "tested.target", "recorded.endpoint", "recorded.value"],
 "data": [
  ["CCC(c1ccc(Cl)c(Cl)c1)n1c(C(=O)OC)c(NC(=O)N2CCOCC2)[nH]c1=S (stereo not drawn)", "CCR2 receptor (Homo sapiens, UniProt P41597)", "pIC50", 7.00],
  ["CCC(c1ccc(Cl)c(Cl)c1)n1c(C(=O)OC)c(NC(=O)c2cncnc2)[nH]c1=S (stereo not drawn)", "CCR2 receptor (Homo sapiens, UniProt P41597)", "pIC50", 6.70],
  ["CCC(c1ccc(Cl)c(Cl)c1)n1c(C(=O)OC)c(NC(=O)c2nonc2C)[nH]c1=S (stereo not drawn)", "CCR2 receptor (Homo sapiens, UniProt P41597)", "pIC50", 6.30]
]}

[P] CCC(c1ccc(Cl)c(Cl)c1)n1c(C(=O)OC)c(NC(=O)c2ccccc2)[nH]c1=S (stereo not drawn)
[Q] CCC(c1ccc(Cl)c(Cl)c1)n1c(C(=O)OC)c(NC(=O)c2cnccn2)[nH]c1=S (stereo not drawn)
[R] CCC(c1ccc(Cl)c(Cl)c1)n1c(C(=O)OC)c(NC(=O)NCc2ccccc2)[nH]c1=S (stereo not drawn)
Hey, quick one: sort these by pIC50, largest value first please. Give the labels in the order specified.
Q, P, R
(Q: 7.10, P: 6.70, R: 6.20)
